# assay.name: chemical genetic growth profiling, strain panel (AID 1159580);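 note: tested at 20 µM; growth read once vehicle control cultures reached saturation at 30 °C; lower values mean less growth of the strain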
# experimental.conditions: S. cerevisiae deletion strains, growth OD, locus YOR184W, strain ser1
Hit rate of the full screen: of about 5,500 compounds, about 2,000 (36%) were called active. About 18% were inconclusive and are not listed. Cut-off read from the data, not from the text of the source: active = normalized growth mostly below about 0.91 (no sharp cut-off); inconclusive = no clear call, values can overlap the other calls; inactive = mostly above about 0.92. This is one part of the list.
The categories you may choose from are True = active, False = inactive

O=c1ccn([C@@H]2O[C@H](COP(=O)(O)OP(=O)(O)OP(=O)(O)O)[C@@H](O)[C@H]2O)c(=O)[nH]1 | False

[Q] # lookup: test call for COc1ccc(/C=C/C(=O)O)cc1OC
[A] False

[Q] Now try C=CCc1cc(OC)c2c(c1OC)OCO2 .
[A] True

[Q] Now try COc1cc(/C=C/C(=O)O)ccc1O .
[A] False
